test system: DU-145; assay: Cytotoxicity against human DU145 cells assessed as cell viability after 48 hrs by MTT assay; format: functional, cell-based; settings: DU-145, 48 h
pIC50: −log10 of the molar value.

>  <Molecule>
C=C/C(C)=C\CC/C(C)=C/c1cc(C(=O)N2CCN(Cc3ccccc3)CC2)co1

>  <pIC50>
4.34

$$$$
>  <Molecule>
C=C/C(C)=C\CC/C(C)=C/c1cc(C(=O)N2CCN(C)CC2)co1

>  <pIC50>
4.62

$$$$
>  <Molecule>
C=C/C(C)=C\CC/C(C)=C/c1cc(C(=O)N2CCN(CC)CC2)co1

>  <pIC50>
4.69

$$$$
>  <Molecule>
C=C/C(C)=C\CC/C(C)=C/c1cc(C(=O)N2CCN(C(c3ccccc3)c3ccccc3)CC2)co1

>  <pIC50>
4.77

$$$$
>  <Molecule>
C=C/C(C)=C/CC/C(C)=C/c1cc(C(=O)O)co1

>  <pIC50>
4.41

$$$$
>  <Molecule>
C=C/C(C)=C\CC/C(C)=C/c1cc(C(=O)N2CCN(Cc3ccc4c(c3)OCO4)CC2)co1

>  <pIC50>
4.75

$$$$
>  <Molecule>
C=C/C(C)=C\CC/C(C)=C/c1cc(C(=O)NCCCNC(=O)c2coc(/C=C(\C)CC/C=C(/C)C=C)c2)co1

>  <pIC50>
4.38

$$$$
>  <Molecule>
C=C/C(C)=C\CC/C(C)=C/c1cc(C(=O)O)co1

>  <pIC50>
4.22

$$$$
>  <Molecule>
C=C/C(C)=C\CC/C(C)=C/c1cc(C(=O)OC)co1

>  <pIC50>
4.23

$$$$
>  <Molecule>
C=C/C(C)=C\CC/C(C)=C/c1cc(C(=O)Nc2ccc(C)cc2)co1

>  <pIC50>
4.25

$$$$
>  <Molecule>
C=C/C(C)=C\CC/C(C)=C/c1cc(C(=O)N2CCN(c3ccccc3)CC2)co1

>  <pIC50>
4.52

$$$$
>  <Molecule>
C=C/C(C)=C/CC/C(C)=C/c1cc(C(=O)OC)co1

>  <pIC50>
4.60

$$$$
